What IC50 was measured for each of the following?
- System: MDA-MB-231 (Hormone-independent breast cancer)
- MEASUREMENT NOTES: cells
- CONDITION DETAILS: Homo sapiens, MDA-MB-231, 48 h, read-out: IC50 cytotoxic activity
Number only, in µM; omit the unit.

In: What measured IC50 is associated with Cc1cc(C#N)cc(C)c1Oc1cc(Oc2c(C)cc(C#N)cc2C)c2cnccc2n1 [Compound 13b] on MDA-MB-231 (Hormone-independent breast cancer)?
Out: 73.2

In: Lookup COc1cccc2c1C(=O)c1c(O)c3c(c(O)c1C2=O)C[C@@](O)(C(=O)CO)C[C@@H]3O[C@H]1C[C@H](N)[C@H](O)[C@H](C)O1 [doxorubicin, reference compound]
Out: 2.5

In: Lookup Cc1cc(C=O)cc(C)c1Oc1cc(Oc2c(C)cc(C=O)cc2C)c2cnccc2n1 [Compound 13a]
Out: 56.3

In: Lookup Cc1cc(C=O)cc(C)c1Oc1cc(Oc2c(C)cc(C=O)cc2C)c2ccncc2n1 [Compound 14a]
Out: 49.4

* * *

- MEASUREMENT NOTES: in vitro
- CONDITION DETAILS: human, MRC-5 cells (normal embryonic lung cells)
What IC50 at 48 h was measured for each of the following?
Number only, in µM; omit the unit.

In: Could you share which IC50 at 48 h value was measured for Cc1cc(C=O)cc(C)c1Oc1cc(Oc2c(C)cc(C=O)cc2C)c2cnccc2n1 [Compound 13a] ?
Out: 68.1

In: Lookup COc1cccc2c1C(=O)c1c(O)c3c(c(O)c1C2=O)C[C@@](O)(C(=O)CO)C[C@@H]3O[C@H]1C[C@H](N)[C@H](O)[C@H](C)O1 [doxorubicin, reference compound]
Out: 3.1

In: Lookup O=C1Nc2ccc(Cl)cc2[C@@](C#CC2CC2)(C(F)(F)F)O1 [EFV, efavirenz, reference compound]
Out: 95.6

In: Lookup Cc1cc(C=O)cc(C)c1Oc1cc(Oc2c(C)cc(C=O)cc2C)c2ccncc2n1 [Compound 14a]
Out: 65.3

* * *

- System: A549 (Lung carcinoma)
- CONDITION DETAILS: MRC-5 vs A549
MEASURE NAME: Selectivity index SI = IC50(normal cell)/IC50(cancer cell line)
The answer should be written as a number, with no unit following it.

In: Could you share which Selectivity index SI = IC50(normal cell)/IC50(cancer cell line) value was measured for Cc1cc(C=O)cc(C)c1Oc1cc(Oc2c(C)cc(C=O)cc2C)c2ccncc2n1 [Compound 14a] ?
Out: 1.07

In: Lookup COc1cccc2c1C(=O)c1c(O)c3c(c(O)c1C2=O)C[C@@](O)(C(=O)CO)C[C@@H]3O[C@H]1C[C@H](N)[C@H](O)[C@H](C)O1 [doxorubicin, reference compound]
Out: 5.17

In: Lookup Cc1cc(C=O)cc(C)c1Oc1cc(Oc2c(C)cc(C=O)cc2C)c2cnccc2n1 [Compound 13a]
Out: 0.64

* * *

What Percentage cytotoxicity was measured for each of the following?
- Test system: MRC-5 (normal embryonic lung cell)
- CONDITION DETAILS: MRC-5, at maximum tested concentration of 50 µg/mL
Number only, in %; omit the unit.

In: Could you share which Percentage cytotoxicity value was measured for Cc1cc(C#N)cc(C)c1Oc1cc(Oc2c(C)cc(C#N)cc2C)c2ccncc2n1 [Compound 14b] ?
Out: 0

In: Lookup Cc1cc(/C=C/C#N)cc(C)c1Nc1ccnc(Nc2ccc(C#N)cc2)n1 [RPV, rilpivirine, reference compound]
Out: 14

In: Lookup Cc1ccnc2c1NC(=O)c1cccnc1N2C1CC1 [NVP, nevirapine, reference compound]
Out: 1

In: Lookup Cc1cc(C#N)cc(C)c1Oc1cc(Oc2c(C)cc(C#N)cc2C)c2cnccc2n1 [Compound 13b]
Out: 43

* * *

- Test system: HL-60 (promyeloblast)
- CONDITION DETAILS: MRC-5 vs HL-60
MEASURE NAME: Selectivity index SI = IC50(normal cell)/IC50(cancer cell line)
The answer should be written as a number, with no unit following it.

In: Could you share which Selectivity index SI = IC50(normal cell)/IC50(cancer cell line) value was measured for Cc1cc(C=O)cc(C)c1Oc1cc(Oc2c(C)cc(C=O)cc2C)c2cnccc2n1 [Compound 13a] ?
Out: 3.98

In: Lookup Cc1cc(C=O)cc(C)c1Oc1cc(Oc2c(C)cc(C=O)cc2C)c2ccncc2n1 [Compound 14a]
Out: 6.28

In: Lookup COc1cccc2c1C(=O)c1c(O)c3c(c(O)c1C2=O)C[C@@](O)(C(=O)CO)C[C@@H]3O[C@H]1C[C@H](N)[C@H](O)[C@H](C)O1 [doxorubicin, reference compound]
Out: 31

* * *

- Test system: A549 (Lung carcinoma)
- MEASUREMENT NOTES: cells
- CONDITION DETAILS: Homo sapiens, A549, 48 h, read-out: IC50 cytotoxic activity
What IC50 was measured for each of the following?
Number only, in µM; omit the unit.

In: Could you share which IC50 value was measured for Cc1cc(C=O)cc(C)c1Oc1cc(Oc2c(C)cc(C=O)cc2C)c2ccncc2n1 [Compound 14a] ?
Out: 60.8

In: Lookup COc1cccc2c1C(=O)c1c(O)c3c(c(O)c1C2=O)C[C@@](O)(C(=O)CO)C[C@@H]3O[C@H]1C[C@H](N)[C@H](O)[C@H](C)O1 [doxorubicin, reference compound]
Out: 0.6

In: Lookup Cc1cc(C#N)cc(C)c1Oc1cc(Oc2c(C)cc(C#N)cc2C)c2cnccc2n1 [Compound 13b]
Out: 36.1

In: Lookup Cc1cc(C=O)cc(C)c1Oc1cc(Oc2c(C)cc(C=O)cc2C)c2cnccc2n1 [Compound 13a]
Out: 107

* * *

- Tested on: H69AR (Lung cancer, multidrug resistance)
- MEASUREMENT NOTES: cells
- CONDITION DETAILS: Homo sapiens, 48 h, read-out: IC50 cytotoxic activity
What pIC50 was measured for each of the following?
Please report pIC50 as the negative decimal logarithm of the molar concentration, giving only the number.

In: Could you share which pIC50 value was measured for Cc1cc(C=O)cc(C)c1Oc1cc(Oc2c(C)cc(C=O)cc2C)c2ccncc2n1 [Compound 14a] ?
Out: 4.28

In: Lookup Cc1cc(C#N)cc(C)c1Oc1cc(Oc2c(C)cc(C#N)cc2C)c2cnccc2n1 [Compound 13b]
Out: 4.12

In: Lookup Cc1cc(C=O)cc(C)c1Oc1cc(Oc2c(C)cc(C=O)cc2C)c2cnccc2n1 [Compound 13a]
Out: 4.04

* * *

- System: HuCCA-1 (Cholangiocarcinoma)
- MEASUREMENT NOTES: cells
- CONDITION DETAILS: Homo sapiens, HuCC-A1, 48 h, read-out: IC50 cytotoxic activity
MEASURE NAME: pIC50
Please report pIC50 as the negative decimal logarithm of the molar concentration, giving only the number.

In: Could you share which pIC50 value was measured for Cc1cc(C#N)cc(C)c1Oc1cc(Oc2c(C)cc(C#N)cc2C)c2cnccc2n1 [Compound 13b] ?
Out: 4.49

In: Lookup COc1cccc2c1C(=O)c1c(O)c3c(c(O)c1C2=O)C[C@@](O)(C(=O)CO)C[C@@H]3O[C@H]1C[C@H](N)[C@H](O)[C@H](C)O1 [doxorubicin, reference compound]
Out: 6.05

In: Lookup Cc1cc(C=O)cc(C)c1Oc1cc(Oc2c(C)cc(C=O)cc2C)c2ccncc2n1 [Compound 14a]
Out: 4.66

In: Lookup Cc1cc(C=O)cc(C)c1Oc1cc(Oc2c(C)cc(C=O)cc2C)c2cnccc2n1 [Compound 13a]
Out: 4.37

* * *

What Selectivity index SI = IC50(normal cell)/IC50(cancer cell line) was measured for each of the following?
- System: T47-D (Hormone-dependent breast cancer)
- CONDITION DETAILS: MRC-5 vs T47-D
The answer should be written as a number, with no unit following it.

In: Could you share which Selectivity index SI = IC50(normal cell)/IC50(cancer cell line) value was measured for Cc1cc(C=O)cc(C)c1Oc1cc(Oc2c(C)cc(C=O)cc2C)c2ccncc2n1 [Compound 14a] ?
Out: 2.50

In: Lookup COc1cccc2c1C(=O)c1c(O)c3c(c(O)c1C2=O)C[C@@](O)(C(=O)CO)C[C@@H]3O[C@H]1C[C@H](N)[C@H](O)[C@H](C)O1 [doxorubicin, reference compound]
Out: 2.58

In: Lookup Cc1cc(C=O)cc(C)c1Oc1cc(Oc2c(C)cc(C=O)cc2C)c2cnccc2n1 [Compound 13a]
Out: 1.90

* * *

- Test system: H69AR (Lung cancer, multidrug resistance)
- CONDITION DETAILS: MRC-5 vs H69AR
What Selectivity index SI = IC50(normal cell)/IC50(cancer cell line) was measured for each of the following?
The answer should be written as a number, with no unit following it.

In: Could you share which Selectivity index SI = IC50(normal cell)/IC50(cancer cell line) value was measured for COc1cccc2c1C(=O)c1c(O)c3c(c(O)c1C2=O)C[C@@](O)(C(=O)CO)C[C@@H]3O[C@H]1C[C@H](N)[C@H](O)[C@H](C)O1 [doxorubicin, reference compound] ?
Out: 0.09

In: Lookup Cc1cc(C=O)cc(C)c1Oc1cc(Oc2c(C)cc(C=O)cc2C)c2cnccc2n1 [Compound 13a]
Out: 0.74

In: Lookup Cc1cc(C=O)cc(C)c1Oc1cc(Oc2c(C)cc(C=O)cc2C)c2ccncc2n1 [Compound 14a]
Out: 1.25
